Parameter: Ki. Scope: all listed entries.
Target: T1, human pituitary adenylate cyclase-activating polypeptide type I receptor (human, UniProt P41586 21-468)
T1 construct: whole, on cells; On SH-SY5Y or recombinant CHO cells (cAMP assay), as membranes of hPAC-1 AequoScreen CHO cells (radioligand assay) and on CHOK1/huPac1 whole cells (KinExA); also called human PAC1; hPAC1
T1 sequence (looked up): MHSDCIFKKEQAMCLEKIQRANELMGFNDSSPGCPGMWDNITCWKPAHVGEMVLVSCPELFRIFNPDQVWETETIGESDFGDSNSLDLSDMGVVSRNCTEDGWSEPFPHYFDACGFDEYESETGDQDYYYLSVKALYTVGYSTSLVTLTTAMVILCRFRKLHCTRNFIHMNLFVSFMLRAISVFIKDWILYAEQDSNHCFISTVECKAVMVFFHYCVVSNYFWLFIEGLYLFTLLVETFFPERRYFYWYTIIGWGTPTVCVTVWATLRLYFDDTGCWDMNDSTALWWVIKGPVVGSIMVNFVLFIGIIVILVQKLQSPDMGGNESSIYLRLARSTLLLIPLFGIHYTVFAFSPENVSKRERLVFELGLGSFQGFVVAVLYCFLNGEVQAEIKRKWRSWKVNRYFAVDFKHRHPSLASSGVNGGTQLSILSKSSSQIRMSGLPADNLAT
Assay: radioligand competition, hPAC1 CHO membranes; competitor 125I-29A
Your answer is read as nM, so omit the unit and give the number.

Examples from the recorded data:
Entry 05A (antibody, human IgG2, kappa, V domains shown, also called LC-05 and HC-06) VH: QVQLVESGGGVVQPGRSLRLSCAASGFTFSRFAMHWVRRAPGKGLEWVAVISYDGGNKYYAESVKGRFTISRDNSKNTLNLLMNSLRAEDTALFYCARGYDVLTGYPDYWGQGTLVTVSS VL: DIQLTQSPSFLSASVGDRVTITCRASQSIGRSLHWYQQKPGKAPKLLIKYASQSLSGVPSRFSGSGSGTEFTLTISSLQPEDFATYYCHQSSRLPFTFGPGTKVDIKR ; Ki = 0.03

Ki for 28A (antibody, human IgG2, kappa, V domains shown, also called LC-10 and HC-39) VH: QVQLVESGGGVVQPGRSLRLSCAASGFTFSRYAMHWVRQASGKGLEWVAVISYDGSNKYYADSVKGRFTISRDNSKNTLYLLMSSLRAEDTAVFYCARGYDILTGYPDYWGQGTLVTVSS VL: EIVLTQSPDFQSVTPKEKVTITCRASQSIGRSLHWYQQKPDQSPKLLFKYASQSLSGVPSRFSGSGSGTDFTLTINSLEAEDAATYYCHQSSRLPFTFGPGTKVDIKR is 0.04

The binder listed as FTDSYSRYRKQMAVKKYLAAVLGKRYKQRVKNK (peptide, UniProt P18509 137-169, looked up, domain: PACAP 6-38) [PACAP 6-38] shows Ki equal to 4.05

Kindly consider the entry below.
response.value for 03A (antibody, human IgG2, kappa, V domains shown, also called LC-03 and HC-03) VH: QVQLVESGGGVVQPGRSLRLSCAASGFTFSYYAIHWVRQAPGKGLEWVAVISYDGSNKYYADSVKGRFTISRDNSKNTLYLQMNSLRAEDTAVYYCARGYDLLTGYPDYWGQGTLVTVSS VL: DIQLTQSPSFLSASVGDRVTITCRASQSIGRSLHWYQQKPGKAPKLLIKYASQSLSGVPSRFSGSGSGTEFTLTISSLQPEDFATYYCHQSSRLPFTFGPGTKVDIKR (field: Ki) = 0.14
